In this section we review reported pKi values for a set of compounds.
biological target: Muscarinic acetylcholine receptor M1 (Homo sapiens, UniProt P11229)
Sequence (P11229 whole entry): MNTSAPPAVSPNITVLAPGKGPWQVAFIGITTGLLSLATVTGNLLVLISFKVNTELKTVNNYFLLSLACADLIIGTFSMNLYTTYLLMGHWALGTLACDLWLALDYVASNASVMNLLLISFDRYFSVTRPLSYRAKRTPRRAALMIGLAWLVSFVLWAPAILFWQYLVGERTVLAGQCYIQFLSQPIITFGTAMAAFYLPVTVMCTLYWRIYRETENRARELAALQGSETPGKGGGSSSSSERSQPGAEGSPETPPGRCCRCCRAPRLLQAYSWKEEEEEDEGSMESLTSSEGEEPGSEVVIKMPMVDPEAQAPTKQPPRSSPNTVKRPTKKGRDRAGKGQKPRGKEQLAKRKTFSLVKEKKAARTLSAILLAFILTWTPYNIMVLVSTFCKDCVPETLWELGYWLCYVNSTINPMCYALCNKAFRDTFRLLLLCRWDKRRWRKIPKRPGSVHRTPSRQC
The value called pKi is obtained by taking minus log10 of the concentration in mol/L.

Below are worked cases with known answers.
* C[N+]1(C)CCC[C@H]1c1ccc([C@@](O)(c2ccccc2)C2CCCCC2)o1 | 6.48
* CN1CCCC1c1ccc(C(O)(c2ccccc2)c2ccccc2)o1 (racemic) | 7.45
* C[N+]1(C)CCC[C@@H]1c1ccc([C@@](O)(c2ccccc2)C2CCCCC2)o1 | 7.32
* C[N+]1(C)CCCC1c1ccc(C(O)(c2ccccc2)c2ccccc2)o1 (racemic) | 7.63
* C[N+]1(C)CCCC1c1ccc(C(O)(c2ccccc2)C2CCCCC2)o1 (mixture of isomers) | 8.68

Exercise: Given the entry "CN1CCC[C@H]1c1ccc([C@](O)(c2ccccc2)C2CCCCC2)o1" , what pKi was observed with Muscarinic acetylcholine receptor M1 (Homo sapiens, UniProt P11229)?
Key: 7.64

Exercise: Request: pKi, test system Muscarinic acetylcholine receptor M1 (Homo sapiens, UniProt P11229), entry "C[N+]1(C)CCC[C@@H]1c1ccc([C@](O)(c2ccccc2)C2CCCCC2)o1.[I-]"
Key: 9.16

Exercise: Record "CN1CCC[C@@H]1c1ccc([C@@](O)(c2ccccc2)C2CCCCC2)o1" : what is its pKi with Muscarinic acetylcholine receptor M1 (Homo sapiens, UniProt P11229)?
Key: 6.72

Exercise: What is its pKi for Muscarinic acetylcholine receptor M1 (Homo sapiens, UniProt P11229)? Entry: CN1CCCC1c1ccc(C(c2ccccc2)C2CCCCC2)o1 (mixture of isomers)
Key: 7.87

---

Listed here: compounds with reported log10 Ki for UniProt P08172.
Sequence (P08172 whole entry): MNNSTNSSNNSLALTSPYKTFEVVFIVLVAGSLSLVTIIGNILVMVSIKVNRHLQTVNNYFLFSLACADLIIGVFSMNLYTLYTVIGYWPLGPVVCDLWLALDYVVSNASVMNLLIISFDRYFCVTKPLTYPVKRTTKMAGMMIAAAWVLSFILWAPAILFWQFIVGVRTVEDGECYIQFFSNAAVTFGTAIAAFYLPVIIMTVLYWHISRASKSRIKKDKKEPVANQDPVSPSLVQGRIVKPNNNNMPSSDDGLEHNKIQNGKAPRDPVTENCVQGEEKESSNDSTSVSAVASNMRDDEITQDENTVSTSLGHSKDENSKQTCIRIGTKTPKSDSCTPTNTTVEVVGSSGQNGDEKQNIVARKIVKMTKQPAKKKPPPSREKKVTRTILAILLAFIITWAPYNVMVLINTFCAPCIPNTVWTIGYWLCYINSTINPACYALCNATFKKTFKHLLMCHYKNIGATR
Hi team, quick reminder: these entries are log10 of Ki (nM).

Example results:
• CN1CCCC1c1ccc(C(c2ccccc2)c2ccccc2)o1 (stereo not given) = 1.81
• CN1CCC[C@@H]1c1ccc([C@](O)(c2ccccc2)C2CCCCC2)o1 = 0.66
• CN1CCC[C@@H]1c1ccc([C@@](O)(c2ccccc2)C2CCCCC2)o1 = 2.56

Please examine the following record next.
Exercise: What is its log10 Ki for UniProt P08172? Entry: CN1CCCC1c1ccc(C(c2ccccc2)C2CCCCC2)o1 (mixture of isomers)
Key: 2.15

---

target: Muscarinic acetylcholine receptor M3 (Cavia porcellus); assay: Antagonist activity at muscarinic M3 receptor in guinea pig ileum assessed as effect on isotonic tension after 60 mins; assay type: functional, tissue-based
Rule: pKb of 8 or more gives Met; anything lower gives Not met.

Here are 5 molecules together with their reported answers.
• CN1CCC[C@H]1c1ccc([C@](O)(c2ccccc2)C2CCCCC2)o1 = Not met
• CN1CCC[C@@H]1c1ccc([C@](O)(c2ccccc2)C2CCCCC2)o1 = Met
• CN1CCC[C@@H]1c1ccc([C@@](O)(c2ccccc2)C2CCCCC2)o1 = Not met
• C[N+]1(C)CCC[C@@H]1c1ccc([C@](O)(c2ccccc2)C2CCCCC2)o1.[I-] = Met
• C[N+]1(C)CCCC1c1ccc(C(c2ccccc2)c2ccccc2)o1 (racemic) = Not met

Exercise: Item CN1CCCC1c1ccc(C(c2ccccc2)C2CCCCC2)o1 (mixture of isomers) with pKb of 8 or above?
Key: Not met

Exercise: Please check the record "C[N+]1(C)CCC[C@H]1c1ccc([C@@](O)(c2ccccc2)C2CCCCC2)o1" and state if its pKb is at or above 8.
Key: Not met
